# credit: patent US20210388087A1

Molecular target: T1, Human CD137 ECD (human)
T1 construct: entry includes C-terminal His-tag and biotin acceptor peptide; also called human CD137 extracellular domain; 4-1BB
T1 sequence (chain, as listed by the source limits assumed): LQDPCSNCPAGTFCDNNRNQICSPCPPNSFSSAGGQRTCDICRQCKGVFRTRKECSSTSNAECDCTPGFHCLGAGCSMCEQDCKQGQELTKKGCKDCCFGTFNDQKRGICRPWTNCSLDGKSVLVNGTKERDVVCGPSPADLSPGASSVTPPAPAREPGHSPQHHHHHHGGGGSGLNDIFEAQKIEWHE
Assay: Biacore SPR, vs parent H183/L072
parameter.measured: fold change of affinity (fold)
Report only the number, with the unit fold understood.

See these solved cases before continuing.
[[record]]
binder = "H183/L072 VL R29K (antibody, name in Kabat numbering, V domains shown, Dual-Ig) VH: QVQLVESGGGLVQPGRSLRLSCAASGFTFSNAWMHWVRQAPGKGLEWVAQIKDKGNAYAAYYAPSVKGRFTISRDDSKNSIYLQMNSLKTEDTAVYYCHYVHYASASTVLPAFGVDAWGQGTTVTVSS VL: DIVMTQSPLSLPVTPGEPASISCQASQELVHMNKNTYLHWYQQKPGQAPRLLIYKVSNRFPGVPDRFSGSGSGTDFTLKISRVEAEDVGVYYCAQGTSVPFTFGQGTKLEIK"
endpoint_value = 1.1

[[record]]
binder = "H183/L072 VL T97G (antibody, name in Kabat numbering, V domains shown, Dual-Ig) VH: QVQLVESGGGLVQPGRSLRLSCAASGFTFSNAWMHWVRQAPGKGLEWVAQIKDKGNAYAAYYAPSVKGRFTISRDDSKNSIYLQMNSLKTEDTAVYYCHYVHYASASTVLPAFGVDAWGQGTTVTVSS VL: DIVMTQSPLSLPVTPGEPASISCQASQELVHMNRNTYLHWYQQKPGQAPRLLIYKVSNRFPGVPDRFSGSGSGTDFTLKISRVEAEDVGVYYCAQGTSVPFGFGQGTKLEIK"
endpoint_value = 0.6

[[record]]
binder = "H183/L072 VL G91D (antibody, name in Kabat numbering, V domains shown, Dual-Ig) VH: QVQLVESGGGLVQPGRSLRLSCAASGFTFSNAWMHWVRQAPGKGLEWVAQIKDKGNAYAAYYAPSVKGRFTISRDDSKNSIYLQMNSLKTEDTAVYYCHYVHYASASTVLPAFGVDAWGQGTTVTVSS VL: DIVMTQSPLSLPVTPGEPASISCQASQELVHMNRNTYLHWYQQKPGQAPRLLIYKVSNRFPGVPDRFSGSGSGTDFTLKISRVEAEDVGVYYCAQDTSVPFTFGQGTKLEIK"
endpoint_value = 0


# lookup: fold change of affinity of H183/L072 VL V51K (antibody, name in Kabat numbering, V domains shown, Dual-Ig) VH: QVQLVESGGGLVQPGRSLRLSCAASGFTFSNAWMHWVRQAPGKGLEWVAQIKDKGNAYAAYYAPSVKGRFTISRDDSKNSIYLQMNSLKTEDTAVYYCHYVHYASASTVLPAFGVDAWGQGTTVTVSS VL: DIVMTQSPLSLPVTPGEPASISCQASQELVHMNRNTYLHWYQQKPGQAPRLLIYKKSNRFPGVPDRFSGSGSGTDFTLKISRVEAEDVGVYYCAQGTSVPFTFGQGTKLEIK 1.4

Same question, H183/L072 VL A89Q (antibody, name in Kabat numbering, V domains shown, Dual-Ig) VH: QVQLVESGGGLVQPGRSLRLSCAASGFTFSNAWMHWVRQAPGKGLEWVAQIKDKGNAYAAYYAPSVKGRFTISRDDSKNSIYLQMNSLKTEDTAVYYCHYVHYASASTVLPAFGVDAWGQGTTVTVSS VL: DIVMTQSPLSLPVTPGEPASISCQASQELVHMNRNTYLHWYQQKPGQAPRLLIYKVSNRFPGVPDRFSGSGSGTDFTLKISRVEAEDVGVYYCQQGTSVPFTFGQGTKLEIK this time 0

Same question, H183/L072 VL F96W (antibody, name in Kabat numbering, V domains shown, Dual-Ig) VH: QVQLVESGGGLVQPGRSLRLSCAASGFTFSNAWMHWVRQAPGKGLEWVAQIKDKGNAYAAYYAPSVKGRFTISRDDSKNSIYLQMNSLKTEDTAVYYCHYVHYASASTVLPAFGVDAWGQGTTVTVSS VL: DIVMTQSPLSLPVTPGEPASISCQASQELVHMNRNTYLHWYQQKPGQAPRLLIYKVSNRFPGVPDRFSGSGSGTDFTLKISRVEAEDVGVYYCAQGTSVPWTFGQGTKLEIK this time 0

Same question, H183/L072 VL Q27K (antibody, name in Kabat numbering, V domains shown, Dual-Ig) VH: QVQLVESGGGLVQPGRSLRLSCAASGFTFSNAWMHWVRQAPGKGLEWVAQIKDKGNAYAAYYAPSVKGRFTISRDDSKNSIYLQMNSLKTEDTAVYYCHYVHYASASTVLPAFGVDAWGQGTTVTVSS VL: DIVMTQSPLSLPVTPGEPASISCQASKELVHMNRNTYLHWYQQKPGQAPRLLIYKVSNRFPGVPDRFSGSGSGTDFTLKISRVEAEDVGVYYCAQGTSVPFTFGQGTKLEIK this time 0.9

Same question, H183/L072 VL E27aS (antibody, name in Kabat numbering, V domains shown, Dual-Ig) VH: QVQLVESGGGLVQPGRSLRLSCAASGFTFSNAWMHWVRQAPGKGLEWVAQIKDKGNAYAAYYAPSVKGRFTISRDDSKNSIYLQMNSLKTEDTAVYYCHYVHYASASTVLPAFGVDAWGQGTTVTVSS VL: DIVMTQSPLSLPVTPGEPASISCQASQSLVHMNRNTYLHWYQQKPGQAPRLLIYKVSNRFPGVPDRFSGSGSGTDFTLKISRVEAEDVGVYYCAQGTSVPFTFGQGTKLEIK this time 0.6

Same question, H183/L072 VL Q27V (antibody, name in Kabat numbering, V domains shown, Dual-Ig) VH: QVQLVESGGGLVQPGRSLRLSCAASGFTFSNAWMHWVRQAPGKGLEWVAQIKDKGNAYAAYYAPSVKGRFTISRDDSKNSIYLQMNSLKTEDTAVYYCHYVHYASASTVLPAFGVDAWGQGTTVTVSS VL: DIVMTQSPLSLPVTPGEPASISCQASVELVHMNRNTYLHWYQQKPGQAPRLLIYKVSNRFPGVPDRFSGSGSGTDFTLKISRVEAEDVGVYYCAQGTSVPFTFGQGTKLEIK this time 0.8

Same question, H183/L072 VL S52I (antibody, name in Kabat numbering, V domains shown, Dual-Ig) VH: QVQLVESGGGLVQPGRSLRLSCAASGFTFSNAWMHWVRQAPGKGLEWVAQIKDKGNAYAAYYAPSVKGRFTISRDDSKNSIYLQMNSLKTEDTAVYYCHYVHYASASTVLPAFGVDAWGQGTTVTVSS VL: DIVMTQSPLSLPVTPGEPASISCQASQELVHMNRNTYLHWYQQKPGQAPRLLIYKVINRFPGVPDRFSGSGSGTDFTLKISRVEAEDVGVYYCAQGTSVPFTFGQGTKLEIK this time 1.4
